targetOrSystem: recombinant human NaV1.8 stably transfected HEK cells (Homo sapiens)
Construct: expressed in transfected cells; host or cells: HEK cells, stably transfected
Sequence (Q9Y5Y9 whole entry): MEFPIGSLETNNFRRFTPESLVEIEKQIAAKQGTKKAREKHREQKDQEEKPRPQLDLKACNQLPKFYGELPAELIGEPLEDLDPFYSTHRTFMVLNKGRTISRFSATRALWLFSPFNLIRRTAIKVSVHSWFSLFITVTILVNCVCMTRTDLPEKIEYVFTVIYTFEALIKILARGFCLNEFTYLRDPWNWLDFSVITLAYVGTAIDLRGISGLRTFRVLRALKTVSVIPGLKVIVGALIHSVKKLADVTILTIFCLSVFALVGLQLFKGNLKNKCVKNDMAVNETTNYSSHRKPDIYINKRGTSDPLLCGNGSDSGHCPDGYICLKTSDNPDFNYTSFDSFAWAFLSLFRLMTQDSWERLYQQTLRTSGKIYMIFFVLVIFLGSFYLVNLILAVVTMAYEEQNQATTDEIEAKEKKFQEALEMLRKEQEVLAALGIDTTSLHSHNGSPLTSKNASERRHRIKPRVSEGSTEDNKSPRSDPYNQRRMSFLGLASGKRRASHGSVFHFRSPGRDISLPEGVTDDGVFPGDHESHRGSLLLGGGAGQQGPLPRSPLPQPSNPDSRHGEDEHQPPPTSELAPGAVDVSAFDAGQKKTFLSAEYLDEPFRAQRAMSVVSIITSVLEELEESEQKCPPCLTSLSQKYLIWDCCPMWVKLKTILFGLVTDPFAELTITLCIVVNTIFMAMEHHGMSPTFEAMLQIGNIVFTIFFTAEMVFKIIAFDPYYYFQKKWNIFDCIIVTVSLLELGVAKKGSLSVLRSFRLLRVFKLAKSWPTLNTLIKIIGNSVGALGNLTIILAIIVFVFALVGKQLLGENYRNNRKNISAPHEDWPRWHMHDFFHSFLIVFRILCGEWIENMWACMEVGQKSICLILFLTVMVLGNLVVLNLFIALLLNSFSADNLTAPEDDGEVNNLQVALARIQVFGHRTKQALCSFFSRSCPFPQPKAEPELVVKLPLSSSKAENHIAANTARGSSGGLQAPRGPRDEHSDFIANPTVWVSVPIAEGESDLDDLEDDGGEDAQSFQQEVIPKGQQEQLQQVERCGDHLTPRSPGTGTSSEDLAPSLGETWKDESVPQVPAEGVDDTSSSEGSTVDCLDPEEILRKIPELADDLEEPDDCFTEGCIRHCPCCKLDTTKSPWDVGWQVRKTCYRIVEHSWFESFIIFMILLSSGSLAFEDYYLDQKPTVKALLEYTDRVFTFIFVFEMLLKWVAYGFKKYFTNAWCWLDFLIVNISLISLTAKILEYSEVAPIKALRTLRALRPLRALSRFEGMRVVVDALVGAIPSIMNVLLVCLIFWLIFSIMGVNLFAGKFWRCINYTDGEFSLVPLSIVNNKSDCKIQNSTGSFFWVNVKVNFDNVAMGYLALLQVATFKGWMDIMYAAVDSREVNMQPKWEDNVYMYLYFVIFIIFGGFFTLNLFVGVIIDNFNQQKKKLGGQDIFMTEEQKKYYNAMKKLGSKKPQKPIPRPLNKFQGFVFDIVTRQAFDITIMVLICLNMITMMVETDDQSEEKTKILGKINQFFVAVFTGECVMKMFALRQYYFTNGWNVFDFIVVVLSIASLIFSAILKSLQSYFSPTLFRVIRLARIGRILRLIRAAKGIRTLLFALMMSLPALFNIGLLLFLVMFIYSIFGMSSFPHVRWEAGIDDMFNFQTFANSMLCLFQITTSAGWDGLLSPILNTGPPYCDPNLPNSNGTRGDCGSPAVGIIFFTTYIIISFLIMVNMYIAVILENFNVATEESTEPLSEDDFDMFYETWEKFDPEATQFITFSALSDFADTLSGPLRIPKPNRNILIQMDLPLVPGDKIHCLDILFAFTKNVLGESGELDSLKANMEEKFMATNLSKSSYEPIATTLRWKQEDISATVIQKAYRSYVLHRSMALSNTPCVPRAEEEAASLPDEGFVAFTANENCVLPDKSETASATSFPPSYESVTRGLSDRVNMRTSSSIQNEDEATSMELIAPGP
methodSummary: Compound profiling on NaV1.8, human NaV1.8 cell line, SyncroPatch384PE automated patch clamp assay (Example 102, first set of compounds, Table 16)
Format: cell-based
assaySetup: inactivated state block (P2 measurement), human NaV1.8 HEK cells, Table 16 (first set of compounds), read-out: P2IC50
parameterMeasured: IC50

Worked cases, IC50 given:
COc1c(Oc2nnc(C(F)(F)F)c(C)c2C(=O)Nc2cccc(S(C)(=N)=O)c2)ccc(F)c1F (stereo not shown) [Compound 23]    20 to 40 nM
Cc1cc(F)ccc1Oc1ncc(Br)c(C)c1C(=O)Nc1cccc([S@@](C)(=N)=O)c1    ≤ 20 nM
CC(=O)N=[S@](C)(=O)c1cccc(NC(=O)c2cc(C(F)(F)F)cnc2Oc2ccc(F)cc2C)c1    ≤ 20 nM

Next compound, please.
Please give the measured IC50 for this compound: Cc1c(Oc2nnc(C(F)(F)F)c(C)c2C(=O)Nc2cccc(S(C)(=N)=O)c2)ccc(Cl)c1F (single isomer, unassigned) [Compound 1487] ≤ 20 nM

###

targetOrSystem: recombinant human NaV1.8 stably transfected HEK cells (Homo sapiens)
Construct: expressed in transfected cells; host or cells: HEK cells, stably transfected
methodSummary: Compound profiling on NaV1.8, human NaV1.8 cell line, SyncroPatch384PE automated patch clamp assay (Example 115, third set of compounds, Table 27)
Assay type: cell-based
assaySetup: inactivated state block (P2 measurement), human NaV1.8 HEK cells, Table 27 (third set of compounds), read-out: P2 IC50
Procedure: Compound Profiling on NaV1.8 Human NaV1.8 Cell Line SyncroPatch384PE Assay Compounds were tested on recombinant human NaV1.8 stably transfected HEK cells using the SyncroPatch384PE system, an automated patch clamp device. […] Whole cell patch clamp recordings were conducted according to Nanion's standard procedure for SyncroPatch384PE®. […] The potency of the compounds was assessed on two read-outs, resting state block (P1 measurement) or inactivated state block (P2 measurement) to obtain IC50 values. […]
As shown below, each of these compounds has a reported IC50 value.

Worked cases, IC50 given:
COc1cc(F)ccc1Oc1nnc(C(F)(F)F)cc1C(=O)Nc1cc(S(C)(=O)=O)ccc1F    201 to 500 nM
NC(=O)c1cncc(NC(=O)c2cc(C(F)(F)F)nnc2Oc2cc(F)ccc2Cl)c1    > 5000 nM
COc1cc(F)ccc1Oc1nnc(C(F)(F)F)cc1C(=O)Nc1cccc(N2CCOC2=O)c1    > 5000 nM
Cc1cc(F)ccc1Oc1nnc(C(F)(F)F)cc1C(=O)Nc1cccc(S(N)(=O)=O)c1    ≤ 200 nM
O=C(Nc1cc[nH]c(=O)c1)c1cc(C(F)(F)F)nnc1Oc1ccc(F)cc1Cl    1000 to 5000 nM

Please give the measured IC50 for this compound: CS(=O)(=O)c1cccc(NC(=O)c2cc(C(F)(F)F)nnc2Oc2ccc(OC(F)F)cc2)c1 ≤ 200 nM

Please give the measured IC50 for this compound: COc1cc(F)ccc1Oc1nnc(C(F)(F)F)cc1C(=O)Nc1cccc(-n2cnnc2)c1 1000 to 5000 nM

Please give the measured IC50 for this compound: CS(=O)(=O)c1cncc(NC(=O)c2cc(C(F)(F)F)nnc2Oc2ccc(F)cc2Cl)c1 1000 to 5000 nM
